System: gene editing with Cas9
Experiment: Screen of 322 new SSAP proteins, gene editing activity with Cas9 (Table 5)
Format: cell-based
Settings: normalized
# Cas9 with SSAP activity (normalized) per record follows
// no unit, no text: just the number

>  <molecule>
SSAP_74: SEQ ID NO: 243 (protein) SNPPLAQADLQKTQGTEVKTKTKDQQLIHFINQPSMKAQLAAALPRHMTPDRMIRIVTTEIRKTPALANCDMQSFIGAVVQCSQLGLEPGNALGHAYLLPFGNGKAKSGQSNVQLIIGYRGMIDLARRSNQIISISARTVRQGDSFHFEYGLNENLTHVPGENEDSPITHVYAVARLKDGGVQFEVMTHNQIEKVRASSKAGQNGPWVSHWEEMAKKTVIRRLFKYLPVSIEMQKAVILDEKAEANVDQENASVFEGEFEEVSQSA

>  <parameter_measured>
Cas9 with SSAP activity (normalized)

>  <value_measured>
0.751

$$$$

Measured Cas9 with SSAP activity (normalized) of SSAP_49: SEQ ID NO: 218 (protein) TNNQLATQTKRNITTDPSLLTGADIKKYFDPQNLLTEKQVGQALALCKGRNLNPFANEVYIVAYTNRNGGKEFSLIVSKEAFLKRAAQCKDYEGFEAGVVVVDSEGVMHERKGAIMLPEDTLIGGWARVHRKNFKVPVEIVVSREEYDKKQSTWNTMPATMIRKVALVNALREAFPEDLGNMYTEDDGGETFDRIKDVTPQESREDVVARKMAEIEQFNKEQETNHADPEPAQTEETIQGELLDGELEY : −0.176
